The measurements presented in this section are drawn from patent US7932421B2.

- STUDY_SYSTEM: human 11β-HSD1 (Homo sapiens)
- Sequence (P28845 whole entry): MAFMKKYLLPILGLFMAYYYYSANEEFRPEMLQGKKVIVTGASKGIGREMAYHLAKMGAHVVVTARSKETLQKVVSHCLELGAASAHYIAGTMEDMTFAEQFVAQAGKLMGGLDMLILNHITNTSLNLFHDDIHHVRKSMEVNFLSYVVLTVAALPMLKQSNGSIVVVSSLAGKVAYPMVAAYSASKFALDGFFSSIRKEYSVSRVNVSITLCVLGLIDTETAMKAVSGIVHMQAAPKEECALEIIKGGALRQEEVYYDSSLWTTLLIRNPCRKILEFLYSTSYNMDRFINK
- ASSAY_NOTES: hHSD1 SPA: inhibition of 11β-HSD1 (cortisone to cortisol conversion, scintillation proximity assay)
- CONDITIONS_USED: recombinant human 11β-HSD1, SPA
pIC50 values for the compounds below.
In simple prose, pIC50 is minus the logarithm base ten of a concentration in moles per litre.

Would you please look over these solved cases?
O=C(c1ccccc1F)N(C1CC1)[C@H]1CC[C@H](CCO)CC1 ... 8.40
O=C(c1ccc(Cl)cc1)N(C1CC1)[C@H]1CC[C@H](CCO)CC1 ... 8.16
Cc1ccc(C(=O)N(C2CC2)[C@H]2CC[C@H](CC(C)(C)O)CC2)c(F)c1 ... 8.16

Q: Look up pIC50 for this compound: O=C(c1cccc(F)c1)N(C1CC1)[C@H]1CC[C@H](CCO)CC1
Result: 7.39

Q: Look up pIC50 for this compound: COc1ccc(C(=O)N(C2CC2)[C@H]2CC[C@](CCO)(c3ccccn3)CC2)cc1
Result: 7.23

Q: Look up pIC50 for this compound: Cc1ccc(C(=O)N(C2CC2)[C@H]2CC[C@](CCO)(c3ccccn3)CC2)cc1
Result: 7.94

Q: Look up pIC50 for this compound: O=C(c1ccc(Br)cc1F)N(C1CC1)[C@H]1CC[C@H](CCO)CC1
Result: 8.97

Q: Look up pIC50 for this compound: O=C(c1ccccc1)N(C1CC1)[C@H]1CC[C@H](CCO)CC1
Result: 7.74

Q: Look up pIC50 for this compound: O=C(c1ccccc1F)N(C1CC1)[C@H]1CC[C@](CCO)(c2ccccn2)CC1
Result: 7.68

Q: Look up pIC50 for this compound: Cc1ccc(C(=O)N(C2CC2)[C@H]2CC[C@H](CCO)CC2)c(F)c1
Result: 8.71

Q: Look up pIC50 for this compound: CC(C(=O)N(C1CC1)[C@H]1CC[C@H](CCO)CC1)c1ccccc1 (some centres unmarked)
Result: 7.28

Q: Look up pIC50 for this compound: O=C(c1ccc(C(F)(F)F)cc1)N(C1CC1)[C@H]1CC[C@](CCO)(c2ccccn2)CC1
Result: 7.27
